Attribution: patent US20260001879A1

System: P-glycoprotein (P-gp, MDR1)
measurementNotes: in vitro
settings: dog, MDCK-MDR1, Papp A-B Sample - 01
property: Papp A→B at 90 min, 5 µM

compound	property	result
C[C@H]1O[C@@H](O[C@H]2[C@@H](O)C[C@H](O[C@H]3[C@@H](O)C[C@H](O[C@H]4CC[C@@]5(C)[C@H](CC[C@@H]6[C@@H]5C[C@@H](O)[C@]5(C)[C@@H](C7=CC(=O)OC7)CC[C@]65O)C4)O[C@@H]3C)O[C@@H]2C)C[C@H](O)[C@@H]1O	Papp A→B at 90 min, 5 µM	0.96 ×10⁻⁶ cm/s
Cc1cc2c(C(N)=O)c(N)n(-c3c(C)ccc(O)c3C)c2nc1C [RP-6306, reference compound]	Papp A→B at 90 min, 5 µM	13.9 ×10⁻⁶ cm/s

====

Tested on: P-glycoprotein (P-gp, MDR1)
measurementNotes: in vitro
settings: dog, MDCK-MDR1, Papp A-B Mean, MDCK-MDR1, A-B, 5 μM, mean
property: Papp A→B (×10⁻⁶ cm/s)

> print(dat)
                                   molecule  numericresult
1  COCCc1ccc(OCC(O)CNC(C)C)cc1 (stereo not shown)             37

====

measurementNotes: in vitro
settings: dog, MDCK
Protocol: In vitro passive permeability or the ability to serve as a P-glycoprotein (P-gp) transport substrate was tested using MDCK cells (MDCK wild type) or MDCK cells stably transduced with MDRI (MDCK-MDRI), respectively. The permeability experiment was performed in duplicate in a transwell system at a single concentration (5 μM). […]

compound	efflux ratio at 90 min, 5 μM
C[C@H]1O[C@@H](O[C@H]2[C@@H](O)C[C@H](O[C@H]3[C@@H](O)C[C@H](O[C@H]4CC[C@@]5(C)[C@H](CC[C@@H]6[C@@H]5C[C@@H](O)[C@]5(C)[C@@H](C7=CC(=O)OC7)CC[C@]65O)C4)O[C@@H]3C)O[C@@H]2C)C[C@H](O)[C@@H]1O [Digoxin]	2.69
Cc1cc2c(C(N)=O)c(N)n(-c3c(C)ccc(O)c3C)c2nc1C [RP-6306, reference compound]	2.17

====

Item-by-item account of IC50
Test system: MIA PaCa-2 cells
measurementNotes: In vitro anti-proliferative activity against MIA PaCa-2 cells (compound alone)
Type: cell-based
settings: Homo sapiens, MIA PaCa-2, 72 h, intracellular ATP content
property: IC50

> print(dat)
                                   compound       assaysystem   result
1  Cc1cc2c(C(N)=O)c(N)n(-c3c(C)cc(F)c(O)c3C)c2nc1C (single isomer, unassigned) [Compound 6]  MIA PaCa-2 cells  > 10 µM
2  Cc1ccc(O)c(C)c1-n1c(N)c(C(N)=O)c2cc3c(nc21)CCN(C)C3 [Compound 97]  MIA PaCa-2 cells  > 10 µM
3  Cc1ccc(O)c(C)c1-n1c(N)c(C(N)=O)c2cc3c(nc21)COC3 [Compound 16]  MIA PaCa-2 cells  > 10 µM

====

measurementNotes: in vitro
settings: dog, MDCK, Papp A-B Sample - 01

molecule	Papp A→B at 90 min, 5 µM [×10⁻⁶ cm/s]
C[C@H]1O[C@@H](O[C@H]2[C@@H](O)C[C@H](O[C@H]3[C@@H](O)C[C@H](O[C@H]4CC[C@@]5(C)[C@H](CC[C@@H]6[C@@H]5C[C@@H](O)[C@]5(C)[C@@H](C7=CC(=O)OC7)CC[C@]65O)C4)O[C@@H]3C)O[C@@H]2C)C[C@H](O)[C@@H]1O	1.9
Cc1cc2c(C(N)=O)c(N)n(-c3c(C)ccc(O)c3C)c2nc1C [RP-6306, reference compound]	15.1
